Please provide measured concentration at 0.25 h for the entries that follow.
assay: Plasma concentration in BALB/c mouse at 2.5 mg/kg, iv at 0.25 hrs by LC/MS-MS analysis; assay type: ADME, organism-based
One number for each entry, in ng/mL.

Here is how some compounds turned out for concentration at 0.25 h.
>>> measvalue("COc1ccnc2[nH]cc(-c3ccnc(N)n3)c12")
141
>>> measvalue("Nc1nccc(-c2c[nH]c3ncc(-c4ccc(F)cc4)cc23)n1")
311

Q. Value lookup for concentration at 0.25 h; key = Nc1nccc(-c2c[nH]c3ncccc23)n1
A. 34.1

----------
biological target: CDK2/Cyclin A2 (Homo sapiens); assay: Inhibition of CDK2/cyclin A (unknown origin) using histone H1 as substrate after 30 mins in presence of [33P]-gamma-ATP
pIC50: −log10 of the molar value.
Classification field: t = pIC50 at or over 8; f = pIC50 under 8.

>>> group("COc1ccc(CCNc2nccc(-c3c[nH]c4ncccc34)n2)cc1OC")
"f"
>>> group("Nc1nccc(-c2c[nH]c3ncc(-c4ccsc4)cc23)n1")
"t"
>>> group("Nc1nccc(-c2c[nH]c3ncc(-c4cc5ccccc5o4)cc23)n1")
"f"
>>> group("c1cnc2[nH]cc(-c3ccnc(N4CCCC4)n3)c2c1")
"f"

Now consider the entry below.
Q. Check this compound for pIC50 at or above 8: CCc1ccccc1-c1cnc2[nH]cc(-c3ccnc(N)n3)c2c1
A. f

----------
assay: Plasma concentration in BALB/c mouse at 5 mg/kg, ip at 4 hrs by LC/MS-MS analysis; type: ADME, organism-based
measuredProperty: concentration at 4 h
Note to self: number, then unit, no commentary.

Q. Value lookup for concentration at 4 h; key = Nc1nccc(-c2c[nH]c3ncc(-c4ccc(F)cc4)cc23)n1
A. 40.7 ng/mL

----------
Please provide measured pIC50 for the entries that follow.
target: CDK2/Cyclin A2 (Homo sapiens, UniProt P24941); assay: Inhibition of CDK2/cyclin A (unknown origin) using histone H1 as substrate after 30 mins in presence of [33P]-gamma-ATP
Numbers only, as −log10 of the molar value.

>>> measvalue("c1ccc(CCNc2nccc(-c3c[nH]c4ncccc34)n2)cc1")
8.00
>>> measvalue("CSc1ccccc1-c1cnc2[nH]cc(-c3ccnc(N)n3)c2c1")
7.62
>>> measvalue("CN1CCN(c2nccc(-c3c[nH]c4ncccc34)n2)CC1")
6.46
>>> measvalue("c1cnc2[nH]cc(-c3ccnc(N4CCOCC4)n3)c2c1")
6.64
>>> measvalue("c1cnc2[nH]cc(-c3ccnc(N4CCCCC4)n3)c2c1")
6.52

Working through the 3 molecules below one at a time, give pIC50 for each.
1. COc1ccc(CCNc2nccc(-c3c[nH]c4ncccc34)n2)cc1
2. COc1ccc2ccccc2c1-c1cnc2[nH]cc(-c3ccnc(N)n3)c2c1
3. c1ccc2c(CCNc3nccc(-c4c[nH]c5ncccc45)n3)c[nH]c2c1

A.
1: 8.40; 2: 5.96; 3: 8.00

----------
experiment: AUC (0 to t) in BALB/c mouse at 5 mg/kg, ip by LC/MS-MS analysis; assay type: ADME, organism-based; settings: in vivo
measuredProperty: AUC(0-t) (ng·h/mL)
One number for each entry, in ng·h/mL.

Q. Value lookup for AUC(0-t); key = Nc1nccc(-c2c[nH]c3ncc(-c4ccc(F)cc4)cc23)n1
A. 244
